# key: entry, value: IC50
tested.system: POU domain, class 3, transcription factor 3 (Mus musculus) (UniProt P31361)
Sequence (P31361 whole entry, looked up, the tested form may be a part): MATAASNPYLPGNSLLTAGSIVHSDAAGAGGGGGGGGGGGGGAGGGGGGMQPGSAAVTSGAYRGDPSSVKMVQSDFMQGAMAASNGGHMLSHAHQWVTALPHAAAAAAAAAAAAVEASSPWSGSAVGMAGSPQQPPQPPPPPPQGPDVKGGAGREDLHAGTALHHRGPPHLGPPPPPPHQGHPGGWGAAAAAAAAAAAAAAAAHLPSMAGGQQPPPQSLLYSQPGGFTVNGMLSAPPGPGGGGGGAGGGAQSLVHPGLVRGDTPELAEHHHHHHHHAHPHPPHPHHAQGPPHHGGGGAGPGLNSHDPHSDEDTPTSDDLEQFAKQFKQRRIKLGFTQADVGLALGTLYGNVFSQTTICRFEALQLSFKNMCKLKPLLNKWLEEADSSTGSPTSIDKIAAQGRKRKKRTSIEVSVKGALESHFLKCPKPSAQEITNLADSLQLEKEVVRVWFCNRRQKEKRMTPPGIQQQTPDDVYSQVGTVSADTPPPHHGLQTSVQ
protocol: Antagonistic activity against BRN1/DNA interaction by electrophoretic mobility shift assay
parameter: IC50 (µM)

[[record]]
structure = "O=C(COc1ccc(C(=O)Nc2cccc(F)c2)c2ccccc12)NCC(F)(F)F"
parameter = "IC50"
test_result = 162

[[record]]
structure = "O=C(COc1ccc(C(=O)Nc2cccc(F)c2)c2ccccc12)NC1CC1"
parameter = "IC50"
test_result = 810

[[record]]
structure = "O=C(COc1ccc(C(=O)Nc2cccc(F)c2)c2ccccc12)Nc1ccc(O)cc1"
parameter = "IC50"
test_result = 124

[[record]]
structure = "O=C(COc1ccc(C(=O)Nc2cccc(F)c2)c2ccccc12)Nc1cccc(O)c1"
parameter = "IC50"
test_result = 142

